Cited source: the Human Domainome abundance scans (Beltran et al. 2025)

B1: Lysine-specific demethylase 2B, residues 656 to 722; numbered along this chain, Q8NHM5 (parent)
chain: LPHTAVCLVCGEAGKEDTVEEEEGKFNLMLMECSICNEIIHPGCLKIKESEGVVNDELPNCWECPKC

- Variants of: B1
- method: abundance fitness (aPCA) (normalised: wild type 0, dead -1); higher = more abundant; growth selection in yeast, the domain comes from the species named
- assay context: Homo sapiens
Readings of abundance fitness for the listed variants

# var, abundance fitness
measured = [
    ("E38M", 0.066),
    ("N37Y", 0.137),
    ("P2K", 0.78),
    ("L58H", 0.194),
    ("K15R", -0.355),
    ("E63V", 0.039),
    ("M31R", -0.141),
    ("V53T", 0.078),
    ("E32Y", -0.668),
    ("V9P", -0.707),
    ("V53N", -0.136),
    ("E21G", 0.12),
    ("C33S", -0.716),
    ("C10L", -1.01),
    ("T18A", -0.514),
    ("V19D", -0.459),
    ("P42W", -0.32),
    ("E63A", 0.017),
    ("L1S", -0.069),
    ("S50P", 0.087),
    ("C36A", -0.78),
    ("C44L", -0.956),
]
